target: DtolTA (PLP-dependent transaminase of fold type IV) (Desulfobacula toluolica, UniProt K0NPP0, R144I); construct: (His)6-tagged DtolTA variant; test: tyrosine fluorescence quenching titration of apoenzyme
Sequence (K0NPP0 entry or part of it R144I): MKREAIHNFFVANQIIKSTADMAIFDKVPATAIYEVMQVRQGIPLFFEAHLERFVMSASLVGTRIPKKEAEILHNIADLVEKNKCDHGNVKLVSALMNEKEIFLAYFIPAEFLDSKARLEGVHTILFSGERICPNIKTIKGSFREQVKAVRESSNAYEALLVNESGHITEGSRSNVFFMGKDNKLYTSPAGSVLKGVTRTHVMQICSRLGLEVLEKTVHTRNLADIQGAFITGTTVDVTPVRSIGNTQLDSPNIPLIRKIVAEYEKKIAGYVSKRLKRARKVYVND
observation type: pKd
Answers are plain numbers, as −log10 of the molar value.

Endpoint output: pKd of Cc1ncc(COP(=O)(O)O)c(C=O)c1O [pyridoxal-5′-phosphate] . Value? 4.37

---

target: DtolTA (PLP-dependent transaminase of fold type IV) (Desulfobacula toluolica, UniProt K0NPP0)
Sequence (K0NPP0 1-286): as the sequence (K0NPP0 entry or part of it R144I) above
observation type: pKd
Numbers only, as −log10 of the molar value.

Endpoint output: pKd of Cc1ncc(COP(=O)(O)O)c(C=O)c1O [pyridoxal-5′-phosphate] . Value? 4.52
